# Tested on: NCI-H2405
# experimental-details: relative viability (nuclei count vs DMSO), 5 days (fraction); higher = more cells survive
# condition-parameters: first compound 0.3162 µM
observed-property: relative viability

Exercise: Any idea what relative viability was measured for O=c1cc(N2CCOCC2)oc2c(-c3cccc4c3sc3ccccc34)cccc12 + Cc1nc(Nc2ncc(C(=O)Nc3c(C)cccc3Cl)s2)cc(N2CCN(CCO)CC2)n1 [Dasatinib] (partner 0.075 µM) ?
Solution: 0.238

Exercise: Request the reported relative viability associated with CCN(CC)CCCCNc1ncc2cc(-c3cc(OC)cc(OC)c3)c(NC(=O)NC(C)(C)C)nc2n1 + O=C(CCCCCCC(=O)Nc1ccccc1)NO [Vorinostat] (partner 1 µM)
Solution: 1.22

Exercise: If you can, please state the reported relative viability value of O=c1cc(N2CCOCC2)oc2c(-c3cccc4c3sc3ccccc34)cccc12 + N=C(N)NC(=N)NCCc1ccccc1 [Phenformin] (partner 250 µM) .
Solution: 0.424

Exercise: Which measured relative viability value corresponds to CCN(CC)CCCCNc1ncc2cc(-c3cc(OC)cc(OC)c3)c(NC(=O)NC(C)(C)C)nc2n1 + CC1(C)CCC(c2ccc(Cl)cc2)=C(CN2CCN(c3ccc(C(=O)NS(=O)(=O)c4ccc(N[C@H](CCN5CCOCC5)CSc5ccccc5)c(S(=O)(=O)C(F)(F)F)c4)cc3)CC2)C1 [Navitoclax] (partner 0.5 µM) ?
Solution: 0.901

Continuing:
Exercise: Which relative viability reading was recorded for the molecule O=c1cc(N2CCOCC2)oc2c(-c3cccc4c3sc3ccccc34)cccc12 + CC(=O)c1c(C)c2cnc(Nc3ccc(N4CCNCC4)cn3)nc2n(C2CCCC2)c1=O [Palbociclib] (partner 0.5 µM) ?
Solution: 0.513

Exercise: For O=c1cc(N2CCOCC2)oc2c(-c3cccc4c3sc3ccccc34)cccc12 + CC(=O)Nc1cccc(-n2c(=O)n(C3CC3)c(=O)c3c(Nc4ccc(I)cc4F)n(C)c(=O)c(C)c32)c1 [Trametinib] (partner 0.02 µM) , what is its reported relative viability?
Solution: 0.686

Exercise: # lookup: relative viability of O=c1cc(N2CCOCC2)oc2c(-c3cccc4c3sc3ccccc34)cccc12 + O=C(c1cc(Cc2n[nH]c(=O)c3ccccc23)ccc1F)N1CCN(C(=O)C2CC2)CC1 [Olaparib] (partner 8 µM)
Solution: 0.832

Exercise: Please report the recorded relative viability for O=c1cc(N2CCOCC2)oc2c(-c3cccc4c3sc3ccccc34)cccc12 + COc1cccc2cc(-c3nc([C@H]4CC[C@H](C(=O)O)CC4)n4ncnc(N)c34)[nH]c12 [OSI-027] (partner 0.5 µM) .
Solution: 0.663

Exercise: What relative viability value was documented for this molecule, O=c1cc(N2CCOCC2)oc2c(-c3cccc4c3sc3ccccc34)cccc12 + NC(=O)Nc1cc(-c2cccc(F)c2)sc1C(=O)N[C@H]1CCCNC1 [AZD7762] (partner 0.2 µM) ?
Solution: 0.787

Exercise: Given the entry CCN(CC)CCCCNc1ncc2cc(-c3cc(OC)cc(OC)c3)c(NC(=O)NC(C)(C)C)nc2n1 + CS(=O)(=O)N1CCN(Cc2cc3nc(-c4cccc5[nH]ncc45)nc(N4CCOCC4)c3s2)CC1 [Pictilisib] (partner 1 µM) , report its measured relative viability.
Solution: 0.531

Exercise: Would you kindly share the measured relative viability for CCN(CC)CCCCNc1ncc2cc(-c3cc(OC)cc(OC)c3)c(NC(=O)NC(C)(C)C)nc2n1 + CC(=O)c1c(C)c2cnc(Nc3ccc(N4CCNCC4)cn3)nc2n(C2CCCC2)c1=O [Palbociclib] (partner 0.5 µM) ?
Solution: 0.534

Exercise: Item under review: CCN(CC)CCCCNc1ncc2cc(-c3cc(OC)cc(OC)c3)c(NC(=O)NC(C)(C)C)nc2n1 + Nc1ncn([C@H]2C[C@H](O)[C@@H](CO)O2)c(=O)n1 [Decitabine] (partner 2 µM) . Reported relative viability?
Solution: 0.765
